All values here come from paper PMC8151276.

I'd appreciate it if you could supply NanoBRET Fold Response values for the items below.
- MEASURED_ON: HTR1F (Homo sapiens, UniProt P30939)
- Construct: purchased Promega (in-house HiBiT-GPCR construct library, NanoBRET)
- Sequence (P30939 whole entry): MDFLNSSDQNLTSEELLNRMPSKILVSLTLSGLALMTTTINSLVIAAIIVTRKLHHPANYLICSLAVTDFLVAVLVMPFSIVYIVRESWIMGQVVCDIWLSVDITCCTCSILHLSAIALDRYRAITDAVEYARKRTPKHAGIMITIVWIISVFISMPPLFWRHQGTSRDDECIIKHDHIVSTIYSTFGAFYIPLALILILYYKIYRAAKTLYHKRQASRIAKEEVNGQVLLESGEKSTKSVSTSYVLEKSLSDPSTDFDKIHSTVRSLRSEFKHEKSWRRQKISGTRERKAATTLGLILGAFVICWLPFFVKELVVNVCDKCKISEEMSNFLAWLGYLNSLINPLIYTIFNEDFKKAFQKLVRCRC
- ASSAY_TEXT: NanoBRET screen HiBiT-HTR1F in HEK293
- Assay type: binding
- COND: HTR1F; tracer 1μM
Answer with the value's number alone.

For reference, reported NanoBRET Fold Response for Cc1cc2c(s1)Nc1ccccc1N=C2N1CCN(CCCNC(=O)CCOCCOCCOCCOCCNC(=O)CCc2ccc3n2[B-](F)(F)[N+]2=C(c4ccc[nH]4)C=CC2=C3)CC1 stands at 1.21

# compound O=C(CCc1ccc2n1[B-](F)(F)[N+]1=C(c3ccc[nH]3)C=CC1=C2)NCc1ccc(C(=O)NCCOCCC(=O)N[C@@H]2CC[C@@]3(O)[C@H]4Cc5ccc(O)c6c5[C@@]3(CCN4CC3CC3)[C@H]2O6)cc1 [Naltrexone-3-NB590] ; its NanoBRET Fold Response = 1.30

For this compound ( COc1ccccc1N1CCN(CCCCN2C(=O)c3ccc(CNC(=O)CCOCCOCCOCCOCCNC(=O)CCc4ccc5n4[B-](F)(F)[N+]4=C(c6ccc[nH]6)C=CC4=C5)cc3C2=O)CC1 ), measured NanoBRET Fold Response is 2.39

NanoBRET Fold Response for O=C(CCOCCOCCOCCOCCNC(=O)CCc1ccc2n1[B-](F)(F)[N+]1=C(c3ccc[nH]3)C=CC1=C2)NCCCN1CCN(C2=Nc3ccccc3Oc3ccc(Cl)cc32)CC1 is 1.07

GET /value?item= CC(C)N(CC[C@H](c1ccccc1)c1cc(CCNC(=O)c2ccc(CNC(=O)CCc3ccc4n3[B-](F)(F)[N+]3=C(c5ccc[nH]5)C=CC3=C4)cc2)ccc1O)C(C)C &field=NanoBRET Fold Response returns 1.63

====

- MEASURED_ON: SMO (Homo sapiens, UniProt Q99835)
- Construct: purchased Promega (in-house HiBiT-GPCR construct library, NanoBRET)
- Sequence (Q99835 28-787): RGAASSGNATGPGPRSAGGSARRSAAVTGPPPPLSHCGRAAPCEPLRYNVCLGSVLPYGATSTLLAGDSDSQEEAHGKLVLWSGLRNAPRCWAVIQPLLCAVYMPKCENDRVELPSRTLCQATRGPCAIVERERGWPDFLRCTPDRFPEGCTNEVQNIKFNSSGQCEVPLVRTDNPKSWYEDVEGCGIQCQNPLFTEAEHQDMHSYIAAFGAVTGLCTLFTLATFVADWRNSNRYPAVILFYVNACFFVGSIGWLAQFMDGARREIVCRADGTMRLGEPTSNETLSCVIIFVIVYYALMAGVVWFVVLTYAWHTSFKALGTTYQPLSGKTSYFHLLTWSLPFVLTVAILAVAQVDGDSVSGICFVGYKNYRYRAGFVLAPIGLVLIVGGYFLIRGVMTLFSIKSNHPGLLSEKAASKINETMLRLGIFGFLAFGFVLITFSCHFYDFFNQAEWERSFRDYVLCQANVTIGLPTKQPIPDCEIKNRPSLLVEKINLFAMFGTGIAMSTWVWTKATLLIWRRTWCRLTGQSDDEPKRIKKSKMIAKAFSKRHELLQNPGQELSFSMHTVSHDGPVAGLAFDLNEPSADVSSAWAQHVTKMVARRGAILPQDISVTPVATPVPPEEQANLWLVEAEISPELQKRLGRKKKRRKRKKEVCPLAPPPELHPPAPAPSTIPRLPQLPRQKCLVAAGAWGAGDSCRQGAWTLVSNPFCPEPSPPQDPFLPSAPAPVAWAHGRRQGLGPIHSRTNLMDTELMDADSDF
- ASSAY_TEXT: NanoBRET screen HiBiT-SMO in HEK293
- Format: binding
- COND: SMO; tracer 1μM
Reported NanoBRET Fold Response maps to class as: Low (below 0.9), Medium (0.9 to below 1), High (1 or more)

Req: Band for the recorded NanoBRET Fold Response of Cc1cc2c(s1)Nc1ccccc1N=C2N1CCN(CCCNC(=O)CCOCCOCCOCCOCCNC(=O)CCc2ccc3n2[B-](F)(F)[N+]2=C(c4ccc[nH]4)C=CC2=C3)CC1 ?
Resp: Low

Req: Lab note: sort O=C(CCc1ccc2n1[B-](F)(F)[N+]1=C(c3ccc[nH]3)C=CC1=C2)NCCOCCOCCNC(=O)OCCOCCN1CCN(C2=Nc3ccccc3Sc3ccccc32)CC1 into the matching NanoBRET Fold Response band.
Resp: Medium

Req: Entry CC(C)N(CC[C@H](c1ccccc1)c1cc(CCNC(=O)c2ccc(CNC(=O)CCc3ccc4n3[B-](F)(F)[N+]3=C(c5ccc[nH]5)C=CC3=C4)cc2)ccc1O)C(C)C belongs to which category?
Resp: Medium

Req: Note: place this compound into its band. Item: O=C(CCc1ccc2n1[B-](F)(F)[N+]1=C(c3ccc[nH]3)C=CC1=C2)NCc1ccc(C(=O)NCCOCCC(=O)N[C@@H]2CC[C@@]3(O)[C@H]4Cc5ccc(O)c6c5[C@@]3(CCN4CC3CC3)[C@H]2O6)cc1 [Naltrexone-3-NB590]
Resp: Low

Req: Just checking, what class would you give CCCn1c(=O)c2[nH]c(-c3ccc(OCC(=O)NCCNC(=O)CCOCCNC(=O)c4ccc(CNC(=O)CCc5ccc6n5[B-](F)(F)[N+]5=C(c7ccc[nH]7)C=CC5=C6)cc4)cc3)nc2n(CCC)c1=O here?
Resp: High

Req: Band assignment needed for COc1ccccc1N1CCN(CCCCN2C(=O)c3ccc(CNC(=O)CCOCCNC(=O)c4ccc(CNC(=O)CCc5ccc6n5[B-](F)(F)[N+]5=C(c7ccc[nH]7)C=CC5=C6)cc4)cc3C2=O)CC1 please.
Resp: Medium

Req: Category of O=C(CCOCCOCCOCCOCCNC(=O)CCc1ccc2n1[B-](F)(F)[N+]1=C(c3ccc[nH]3)C=CC1=C2)NCCCN1CCN(C2=Nc3ccccc3Oc3ccc(Cl)cc32)CC1 :
Resp: High

Req: Using the reported NanoBRET Fold Response, which band applies to CC(C)N(CC[C@H](c1ccccc1)c1cc(CCNC(=O)CCOCCOCCOCCOCCNC(=O)CCc2ccc3n2[B-](F)(F)[N+]2=C(c4ccc[nH]4)C=CC2=C3)ccc1O)C(C)C ?
Resp: Low

Req: Please report the category associated with COc1ccccc1N1CCN(CCCCN2C(=O)c3ccc(CNC(=O)CCOCCOCCOCCOCCNC(=O)CCc4ccc5n4[B-](F)(F)[N+]4=C(c6ccc[nH]6)C=CC4=C5)cc3C2=O)CC1 , nothing else.
Resp: High

====

- MEASURED_ON: ADORA1 (Homo sapiens, UniProt P30542)
- Construct: purchased Promega (in-house HiBiT-GPCR construct library, NanoBRET)
- Sequence (P30542 whole entry): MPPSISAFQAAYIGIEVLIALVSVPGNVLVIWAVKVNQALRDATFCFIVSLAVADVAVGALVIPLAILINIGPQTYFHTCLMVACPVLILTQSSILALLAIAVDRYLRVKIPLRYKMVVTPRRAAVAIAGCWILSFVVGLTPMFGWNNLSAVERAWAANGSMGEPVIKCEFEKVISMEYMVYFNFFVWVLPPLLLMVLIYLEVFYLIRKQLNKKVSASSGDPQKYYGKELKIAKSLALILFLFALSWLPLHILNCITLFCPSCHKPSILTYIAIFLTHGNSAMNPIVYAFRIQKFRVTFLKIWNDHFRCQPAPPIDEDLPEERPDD
- ASSAY_TEXT: NanoBRET screen HiBiT-ADORA1 in HEK293
- Format: binding
- COND: ADORA1; tracer 0.1μM
I'd appreciate it if you could supply NanoBRET Fold Response values for the items below.
# output: bare number, no unit

Entry O=C(CCc1ccc2n1[B-](F)(F)[N+]1=C(c3ccc[nH]3)C=CC1=C2)NCc1ccc(C(=O)NCCOCCC(=O)N[C@@H]2CC[C@@]3(O)[C@H]4Cc5ccc(O)c6c5[C@@]3(CCN4CC3CC3)[C@H]2O6)cc1 [Naltrexone-3-NB590] ; NanoBRET Fold Response = 0.84

Kindly note the recorded NanoBRET Fold Response for COc1ccccc1N1CCN(CCCCN2C(=O)c3ccc(CNC(=O)CCOCCNC(=O)c4ccc(CNC(=O)CCc5ccc6n5[B-](F)(F)[N+]5=C(c7ccc[nH]7)C=CC5=C6)cc4)cc3C2=O)CC1 , which is 1.07

Query Cc1cc2c(s1)Nc1ccccc1N=C2N1CCN(CCCNC(=O)CCOCCOCCOCCOCCNC(=O)CCc2ccc3n2[B-](F)(F)[N+]2=C(c4ccc[nH]4)C=CC2=C3)CC1 yields NanoBRET Fold Response of 1.09

Looking up CC(C)N(CC[C@H](c1ccccc1)c1cc(CCNC(=O)c2ccc(CNC(=O)CCc3ccc4n3[B-](F)(F)[N+]3=C(c5ccc[nH]5)C=CC3=C4)cc2)ccc1O)C(C)C , I see its NanoBRET Fold Response listed as 1.18

Looking up Cc1nc2n(c(=O)c1CCN1CCC(c3noc4cc(F)ccc34)CC1)CCCC2OC(=O)NCCOCCOCCOCCOCCNC(=O)CCc1ccc2n1[B-](F)(F)[N+]1=C(c3ccc[nH]3)C=CC1=C2 (centres unmarked) , I see its NanoBRET Fold Response listed as 1.04

# NanoBRET Fold Response (compound: CC(C)N(CC[C@H](c1ccccc1)c1cc(CCNC(=O)CCOCCOCCOCCOCCNC(=O)CCc2ccc3n2[B-](F)(F)[N+]2=C(c4ccc[nH]4)C=CC2=C3)ccc1O)C(C)C ) is 0.95

Per the records, this compound ( CCCn1c(=O)c2[nH]c(-c3ccc(OCC(=O)NCCNC(=O)CCOCCNC(=O)c4ccc(CNC(=O)CCc5ccc6n5[B-](F)(F)[N+]5=C(c7ccc[nH]7)C=CC5=C6)cc4)cc3)nc2n(CCC)c1=O ) has NanoBRET Fold Response equal to 10.95

So for O=C(CCOCCOCCOCCOCCNC(=O)CCc1ccc2n1[B-](F)(F)[N+]1=C(c3ccc[nH]3)C=CC1=C2)NCCCN1CCN(C2=Nc3ccccc3Oc3ccc(Cl)cc32)CC1 , the logged NanoBRET Fold Response turned out to be 1.13

Memo: N#CN=C(NCCCOc1cccc(CN2CCCCC2)c1)NCCNC(=O)CCOCCOCCOCCOCCNC(=O)CCc1ccc2n1[B-](F)(F)[N+]1=C(c3ccc[nH]3)C=CC1=C2 , reported NanoBRET Fold Response: 1.04

Short answer for O=C(CCc1ccc2n1[B-](F)(F)[N+]1=C(c3ccc[nH]3)C=CC1=C2)NCCOCCOCCNC(=O)OCCOCCN1CCN(C2=Nc3ccccc3Sc3ccccc32)CC1 : NanoBRET Fold Response was 1.30

Given item COc1ccccc1N1CCN(CCCCN2C(=O)c3ccc(CNC(=O)CCOCCOCCOCCOCCNC(=O)CCc4ccc5n4[B-](F)(F)[N+]4=C(c6ccc[nH]6)C=CC4=C5)cc3C2=O)CC1 , the value recorded as its NanoBRET Fold Response is 1.10

====

- MEASURED_ON: CXCR4 (Homo sapiens, UniProt P61073)
- Construct: purchased Promega (in-house HiBiT-GPCR construct library, NanoBRET)
- Sequence (P61073 whole entry): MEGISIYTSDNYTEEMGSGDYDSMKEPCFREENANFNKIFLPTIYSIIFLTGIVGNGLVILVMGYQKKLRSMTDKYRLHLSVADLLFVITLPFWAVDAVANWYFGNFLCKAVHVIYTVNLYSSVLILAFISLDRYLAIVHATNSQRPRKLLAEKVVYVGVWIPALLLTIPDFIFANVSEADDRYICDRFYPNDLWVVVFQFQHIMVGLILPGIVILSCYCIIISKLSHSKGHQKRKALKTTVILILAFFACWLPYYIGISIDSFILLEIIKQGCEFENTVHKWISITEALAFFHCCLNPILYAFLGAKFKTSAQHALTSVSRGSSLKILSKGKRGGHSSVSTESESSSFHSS
- ASSAY_TEXT: NanoBRET screen HiBiT-CXCR4 in HEK293
- Format: binding
- COND: CXCR4; tracer 1μM
Provide the recorded NanoBRET Fold Response for the entries that follow.
Please respond with just the number, no unit label.

NanoBRET Fold Response recorded for this molecule, O=C(CCOCCOCCOCCOCCNC(=O)CCc1ccc2n1[B-](F)(F)[N+]1=C(c3ccc[nH]3)C=CC1=C2)NCCCN1CCN(C2=Nc3ccccc3Oc3ccc(Cl)cc32)CC1 , is 1.03

Summary for this molecule, CC(C)N(CC[C@H](c1ccccc1)c1cc(CCNC(=O)c2ccc(CNC(=O)CCc3ccc4n3[B-](F)(F)[N+]3=C(c5ccc[nH]5)C=CC3=C4)cc2)ccc1O)C(C)C : NanoBRET Fold Response is 1.03

Kindly note the recorded NanoBRET Fold Response for Cc1nc2n(c(=O)c1CCN1CCC(c3noc4cc(F)ccc34)CC1)CCCC2OC(=O)NCCOCCOCCOCCOCCNC(=O)CCc1ccc2n1[B-](F)(F)[N+]1=C(c3ccc[nH]3)C=CC1=C2 (centres unmarked) , which is 1.12

Lab note: CC(C)N(CC[C@H](c1ccccc1)c1cc(CCNC(=O)CCOCCOCCOCCOCCNC(=O)CCc2ccc3n2[B-](F)(F)[N+]2=C(c4ccc[nH]4)C=CC2=C3)ccc1O)C(C)C gave NanoBRET Fold Response of 1.02

Entry CCCn1c(=O)c2[nH]c(-c3ccc(OCC(=O)NCCNC(=O)CCOCCNC(=O)c4ccc(CNC(=O)CCc5ccc6n5[B-](F)(F)[N+]5=C(c7ccc[nH]7)C=CC5=C6)cc4)cc3)nc2n(CCC)c1=O — recorded NanoBRET Fold Response = 0.92

Looking up COc1ccccc1N1CCN(CCCCN2C(=O)c3ccc(CNC(=O)CCOCCNC(=O)c4ccc(CNC(=O)CCc5ccc6n5[B-](F)(F)[N+]5=C(c7ccc[nH]7)C=CC5=C6)cc4)cc3C2=O)CC1 , I found its NanoBRET Fold Response recorded as 1.08

NanoBRET Fold Response for N#CN=C(NCCCOc1cccc(CN2CCCCC2)c1)NCCNC(=O)CCOCCOCCOCCOCCNC(=O)CCc1ccc2n1[B-](F)(F)[N+]1=C(c3ccc[nH]3)C=CC1=C2 is 0.99

O=C(CCc1ccc2n1[B-](F)(F)[N+]1=C(c3ccc[nH]3)C=CC1=C2)NCc1ccc(C(=O)NCCOCCC(=O)N[C@@H]2CC[C@@]3(O)[C@H]4Cc5ccc(O)c6c5[C@@]3(CCN4CC3CC3)[C@H]2O6)cc1 [Naltrexone-3-NB590] has a reported NanoBRET Fold Response of 0.84

Note to self: NanoBRET Fold Response recorded for Cc1cc2c(s1)Nc1ccccc1N=C2N1CCN(CCCNC(=O)CCOCCOCCOCCOCCNC(=O)CCc2ccc3n2[B-](F)(F)[N+]2=C(c4ccc[nH]4)C=CC2=C3)CC1 was 1.10

Per the records, this molecule ( O=C(CCc1ccc2n1[B-](F)(F)[N+]1=C(c3ccc[nH]3)C=CC1=C2)NCCOCCOCCNC(=O)OCCOCCN1CCN(C2=Nc3ccccc3Sc3ccccc32)CC1 ) has NanoBRET Fold Response equal to 0.97

Lab note: measured NanoBRET Fold Response of COc1ccccc1N1CCN(CCCCN2C(=O)c3ccc(CNC(=O)CCOCCOCCOCCOCCNC(=O)CCc4ccc5n4[B-](F)(F)[N+]4=C(c6ccc[nH]6)C=CC4=C5)cc3C2=O)CC1 was 1.03
